System: PC-3 prostate
test: NCI tumour cell line growth inhibition, 48 h
experimental_endpoint: TGI

Tell me measured TGI for CCCCCCCCCCCCCCCCNc1ccn(C2CC(OP(=O)(O)OCC3OC(n4cc(CC)c(=O)[nH]c4=O)CC3O)C(CO)O2)c(=O)n1 (stereo unspecified) please.
37.1 µM

Supply measured TGI of COc1ccc(C2=NNC(=O)c3ccccc3N2c2nc(-c3cccs3)nc3ccc(Br)cc23)cc1 in your reply.
91.4 µM

Please list TGI recorded for the molecule CC(C)=CCC/C(C)=C/[C@H]1OC(=O)CC12C[C@H](O)C=CC2=O (stereo partly specified)
1.42 µM

* * *

Tested on: CAKI-1 renal
test: NCI tumour cell line growth inhibition, 48 h
Measured TGI values are reported for all entries that follow.
Respond with the bare value in µM.

CC1(O)C(=O)OC2CC([C@]3(O)CCC4[C@@H]5C[C@H]6O[C@]67[C@@H](O)C=CC(=O)[C@]7(C)C5CC[C@@]43C)C1(C)C2 (stereo partly drawn); 25.4
COC1=CC(=O)c2c(cc(COP(=O)(N(C)CCBr)N(C)CCBr)n2C)C1=O; 2.26
CS(=O)(=O)Nc1cc(-c2ccc3ncnc(Nc4cccc(Cl)c4F)c3c2)cnc1Cl; 12.6
N#Cc1c(NCc2ccccc2)nc(NCc2ccccc2)c(C#N)c1-c1cccc(O)c1; 19.4
O=C1C2=C(c3ccccc31)C(c1ccc(Cl)cc1)NC(=S)N2 (stereo not drawn); 78.3

Given CCN(CC)CCOc1nc2cc(OC)c(OC)cc2c2c1-c1ccc(OC)cc1C2=O , report its TGI on CAKI-1 renal.
22.5

Would you please give the reported TGI of c1ccc(-c2cnc3nc4ccccc4nc3n2)cc1 with CAKI-1 renal?
3.53

* * *

Tested on: OVCAR-4 ovarian
test: NCI tumour cell line growth inhibition, 48 h
Each item that follows carries a reported TGI.

Here's what some known entries look like.
O=C(Nc1ccc(-c2ccnc(Nc3ccc(N4CCOCC4)cc3)n2)cc1)C1CCCN1 (configuration not stated); 43.1 µM
O[C@H](CN1CC1)[C@@H](O)CN1CC1; > 100 µM
C=C1CC(OC)(C(O)C(=O)N[C@H]2OCO[C@H]3C2O[C@H](C[C@H](O)COC)C(C)(C)C3OC)O[C@H](C)[C@@H]1C (some centres not stated); > 0.00772 µM
c1ccc(CNc2ncnc3n[nH]nc23)cc1; > 100 µM

Report measured TGI; entry is CC1OC=CC(=O)C1O (configuration not stated)
> 100 µM

Fill in reported TGI for this entry: COC1=CC(=O)c2c(cc(COP(=O)(N(C)CCBr)N(C)CCBr)n2C)C1=O
20.4 µM

Quote TGI reported for C[C@H]1CC2=CC(=O)CC[C@]2(C)[C@H]2CC[C@@]3(C)[C@@H](CC[C@]3(C)O)[C@H]12 please.
> 100 µM

* * *

System: OVCAR-4 ovarian
test: NCI tumour cell line growth inhibition, 48 h; in the data active means GI50 below about 0.43 µM; inactive means the rest
Permitted responses: Yes for active, No for inactive

Before answering, review these 4 worked examples.
NC(=S)N/N=C\c1nccc2c(C(F)(F)C(F)(F)C(F)(F)F)cccc12; Yes
Cc1ccc(S(=O)(=O)c2ccsc2N)cc1; No
CC1(C)N=C(N)N=C(N)N1c1ccc(OCCCCNC(=O)c2ccc(S(=O)(=O)F)cc2)c(Cl)c1; No
C[C@H]1CC2=CC(=O)CC[C@]2(C)[C@H]2CC[C@@]3(C)[C@@H](CC[C@]3(C)O)[C@H]12; No

Assay outcome for N#Cc1c(NCc2ccccc2)nc(NCc2ccccc2)c(C#N)c1-c1cccc(O)c1 : what was it?
No

Hi, sorry to bother you, what did the test record for Cc1nc2sc(C(=O)Nc3cccc(Cl)c3C)c(N)c2cc1C(C)O (centres undefined) ?
No

Answer briefly: the call reported for CN(C)CCNc1c2c(c(NCCN(C)C)c3c(CO)c[nH]c13)C(=O)c1ccccc1C2=O in this assay.
No

What outcome does the record of this test show for C[C@H]1CCC/C=C/[C@@H]2C[C@H](O)C[C@H]2[C@H](O)[C@@H](SC2OC(CO)C(O)C(O)C2O)CC(=O)O1 (some centres undefined) ?
No

Would you mind telling me which call this test gave COc1ccc(S(=O)(=O)n2c3ccccc3n3ncc(-c4nnc(C)o4)c23)cc1 ?
No

All values here come from PubChem BioAssay (NCI).
